Listing of recorded Fold depletion in AML by entry.
Test system: tet-on competent MLL/AF9+Nras AML
Assay: Pooled negative selection RNAi screening (deep sequencing)
Type: cell-based, mouse
Conditions: deep sequencing reads, On Dox compared to T0
Text: In addition to the analysis of single shRNAs for inhibitory effects in vitro and in vivo, the combination of tet-on competent cancer models and tet-regulatable shRNA expression vectors allowing for monitoring shRNA expression through fluorescent and other reporter genes (e.g. TRMPV and derivates) facilitates pooled shRNA negative selection screening (FIG. 37). […]
metric.name: Fold depletion in AML (Fold)

• Nrp1.479: shRNA, SEQ ID NO: 155 (nucleic acid) TGCTGTTGACAGTGAGCGCACCCTCATTCTTACCATCCAATAGTGAAGCCACAGATGTATTGGATGGTAAGAATGAGGGTATGCCTACTGCCTCGGA = 8.19
• Mcl1.2018: shRNA, SEQ ID NO: 140 (also SEQ ID NO: 45) (nucleic acid) TGCTGTTGACAGTGAGCGCGGACTGGTTATAGATTTATAATAGTGAAGCCACAGATGTATTATAAATCTATAACCAGTCCATGCCTACTGCCTCGGA = 11.48
• Slc6a13.1196: shRNA, SEQ ID NO: 182 (nucleic acid) TGCTGTTGACAGTGAGCGACTGGGACTAGATAGCCAGTTTTAGTGAAGCCACAGATGTAAAACTGGCTATCTAGTCCCAGGTGCCTACTGCCTCGGA = 9.77
• Syt17.721: shRNA, SEQ ID NO: 184 (nucleic acid) TGCTGTTGACAGTGAGCGCCGAGGAGATCATGTCCAAGTATAGTGAAGCCACAGATGTATACTTGGACATGATCTCCTCGTTGCCTACTGCCTCGGA = 10.25
• Acsl1.3559: shRNA, SEQ ID NO: 88 (nucleic acid) TGCTGTTGACAGTGAGCGCCAGCATTTCACTTTACTGCAATAGTGAAGCCACAGATGTATTGCAGTAAAGTGAAATGCTGTTGCCTACTGCCTCGGA = 10.18
• Casp1.248: shRNA, SEQ ID NO: 100 (nucleic acid) TGCTGTTGACAGTGAGCGCCAGTGAGTATAGGGACAATAATAGTGAAGCCACAGATGTATTATTGTCCCTATACTCACTGATGCCTACTGCCTCGGA = 16.16
• Kit.221: neutral control shRNA, SEQ ID NO: 196 (nucleic acid) TGCTGTTGACAGTGAGCGCCAGATGGACTTTCAAGACCTATAGTGAAGCCACAGATGTATAGGTCTTGAAAGTCCATCTGATGCCTACTGCCTCGGA = 1.19
• Myb.2652: shRNA, SEQ ID NO: 144 (also SEQ ID NO: 53) (nucleic acid) TGCTGTTGACAGTGAGCGCCCCAAGTAATACTTAATGCAATAGTGAAGCCACAGATGTATTGCATTAAGTATTACTTGGGATGCCTACTGCCTCGGA = 15.46
• Park2.2222: shRNA, SEQ ID NO: 158 (nucleic acid) TGCTGTTGACAGTGAGCGCAACAGAGAAAGTGCCTATAAATAGTGAAGCCACAGATGTATTTATAGGCACTTTCTCTGTTATGCCTACTGCCTCGGA = 11.36
• Myc.2105: shRNA, SEQ ID NO: 148 (nucleic acid) TGCTGTTGACAGTGAGCGCCTGCCTCAAACTTAAATAGTATAGTGAAGCCACAGATGTATACTATTTAAGTTTGAGGCAGTTGCCTACTGCCTCGGA = 9.19
• Flot2.1039: shRNA, SEQ ID NO: 120 (nucleic acid) TGCTGTTGACAGTGAGCGACAAGGTGACATCAGAAGTAAATAGTGAAGCCACAGATGTATTTACTTCTGATGTCACCTTGCTGCCTACTGCCTCGGA = 10.89
• Lin28.2186: neutral control shRNA, SEQ ID NO: 199 (nucleic acid) TGCTGTTGACAGTGAGCGAATGGTTGATAGCTAAAGGAAATAGTGAAGCCACAGATGTATTTCCTTTAGCTATCAACCATCTGCCTACTGCCTCGGA = 1.43
• Rgs6.896: shRNA, SEQ ID NO: 173 (nucleic acid) TGCTGTTGACAGTGAGCGCCAAGTGAAGATTGACCGGAAATAGTGAAGCCACAGATGTATTTCCGGTCAATCTTCACTTGTTGCCTACTGCCTCGGA = 14.33
• Fpr1.375: shRNA, SEQ ID NO: 124 (nucleic acid) TGCTGTTGACAGTGAGCGATTGGTTCATGTGCAAATTCATTAGTGAAGCCACAGATGTAATGAATTTGCACATGAACCAACTGCCTACTGCCTCGGA = 9.66
• Lima1.3235: shRNA, SEQ ID NO: 138 (nucleic acid) TGCTGTTGACAGTGAGCGAACGGACATTGTACCCAGATAATAGTGAAGCCACAGATGTATTATCTGGGTACAATGTCCGTCTGCCTACTGCCTCGGA = 16.44
• Mcl1.1334: shRNA, SEQ ID NO: 139 (also SEQ ID NO: 43) (nucleic acid) TGCTGTTGACAGTGAGCGAAAGAGTCACTGTCTGAATGAATAGTGAAGCCACAGATGTATTCATTCAGACAGTGACTCTTCTGCCTACTGCCTCGGA = 104.03
• Gab3.527: shRNA, SEQ ID NO: 125 (nucleic acid) TGCTGTTGACAGTGAGCGCGACGGAAACACTAATAGTGTATAGTGAAGCCACAGATGTATACACTATTAGTGTTTCCGTCATGCCTACTGCCTCGGA = 10.22
